molecular target: Tyrosinase (Agaricus bisporus); experiment: Inhibition of mushroom tyrosinase using L-DOPA as substrate preincubated for 10 mins with substrate followed by enzyme addition measured after 15 mins by spectrophotometry
Sequence (O42713 whole entry): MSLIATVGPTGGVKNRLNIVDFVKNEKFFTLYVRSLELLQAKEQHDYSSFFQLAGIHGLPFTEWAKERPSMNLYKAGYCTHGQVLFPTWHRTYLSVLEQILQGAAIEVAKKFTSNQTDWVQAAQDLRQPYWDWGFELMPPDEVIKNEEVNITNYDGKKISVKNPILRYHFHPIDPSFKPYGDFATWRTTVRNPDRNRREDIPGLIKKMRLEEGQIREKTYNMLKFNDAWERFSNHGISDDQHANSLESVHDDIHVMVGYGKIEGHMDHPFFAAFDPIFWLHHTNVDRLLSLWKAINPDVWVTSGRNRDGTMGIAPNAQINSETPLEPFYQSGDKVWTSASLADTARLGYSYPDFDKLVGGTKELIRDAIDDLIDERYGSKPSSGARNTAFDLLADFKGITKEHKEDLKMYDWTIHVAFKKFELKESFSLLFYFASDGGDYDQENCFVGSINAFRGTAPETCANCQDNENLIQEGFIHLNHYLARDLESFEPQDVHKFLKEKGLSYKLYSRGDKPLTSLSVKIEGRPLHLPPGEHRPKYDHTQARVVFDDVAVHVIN
OBSERVATION_TYPE: IC50 (µM)

[[record]]
compound = "CC(C)=CCc1c2c(c(O)c3c1O[C@H](c1ccc(O)cc1)CC3=O)C=CC(C)(C)O2"
assay_system = "Tyrosinase (Agaricus bisporus)"
observation_type = "IC50"
measure_unit = "µM"
number = 84.1


[A] COc1ccc(CCC(=O)c2c(O)c3c(c4c2OC(C(C)(C)O)C4)OC(C)(C)C=C3)cc1 (stereo unspecified)
[B] COc1ccc(CCC(=O)c2ccc3c(c2O)CC(O)C(C)(C)O3)cc1 (stereo unspecified)
[C] CC(C)=CCc1c2c(c(O)c3c1O[C@H](c1ccc(O)cc1O)CC3=O)C=CC(C)(C)O2
[D] COc1ccc([C@@H]2CC(=O)c3c(O)c4c(c(CC=C(C)C)c3O2)OC(C)(C)C=C4)c(O)c1
# ascending order, key=IC50 Output spec: a listing of the labels in the requested order. A, C, D, B
(A: 5.22 µM, C: 7.48 µM, D: 20.4 µM, B: 32.6 µM)
